# Target Under Test: PRMT1 (Homo sapiens, UniProt Q99873)
# Sequence (Q99873 whole entry): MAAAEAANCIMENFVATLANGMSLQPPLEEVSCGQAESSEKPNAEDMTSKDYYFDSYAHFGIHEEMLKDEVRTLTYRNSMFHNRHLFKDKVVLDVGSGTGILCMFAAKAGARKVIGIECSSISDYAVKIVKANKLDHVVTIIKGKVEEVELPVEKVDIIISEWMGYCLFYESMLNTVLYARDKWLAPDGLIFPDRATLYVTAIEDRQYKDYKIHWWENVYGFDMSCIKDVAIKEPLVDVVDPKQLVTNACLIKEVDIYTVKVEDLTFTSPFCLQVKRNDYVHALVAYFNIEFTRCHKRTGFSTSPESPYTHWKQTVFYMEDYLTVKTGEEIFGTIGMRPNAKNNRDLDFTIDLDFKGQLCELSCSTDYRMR
# Run Description: PRMT1 Enzymatic Assay (LANCE TR-FRET, methylation of histone H4 at Arg3)
# Assay type: biochemical
# Set-up: purchased SignalChem P365-380G
# Measurement Setup: PRMT1 1.5 nM, SAM 1 μM, biotinylated histone H4 (1-21) 25 nM; read-out: PRMT-1 IC50
Quantity Name: pIC50
Formally, pIC50 is defined as -log10 of the concentration c, with c in mol/L.

Complete the entry with pIC50 for CNCCN(C)Cc1nn2c(c1C1CCC(COC)(COC)CC1)CN(C(=O)C1(C#N)CC1)CC2 7.15

Complete the entry with pIC50 for CNCCN(C)Cc1nn2c(c1C1CCC(COC)(COC)CC1)CN(C(=O)C1(C)CCCC1)CC2 7.04

Complete the entry with pIC50 for CNCCN(C)Cc1nn2c(c1C1CCC(COC)(COC)CC1)CN(C(=O)CC1CC1)CC2 7.23

Complete the entry with pIC50 for COCC1(COC)CCC(c2c(CN(C)CCN)nn3c2CN(C(=O)CC(F)(F)F)CC3)CC1 7.70

Complete the entry with pIC50 for CNCCN(C)Cc1nn2c(c1C1CCC(COC)(COC)CC1)CN(C(=O)CC(F)(F)F)CC2 7.49

Complete the entry with pIC50 for CNCCN(C)Cc1nn2c(c1C1CCC(COC)(COC)CC1)CN(C(=O)C1COC1)CC2 7.19

Complete the entry with pIC50 for CNCCN(C)Cc1nn2c(c1C1CCC(COC)(COC)CC1)CN(C(=O)CC1CCOCC1)CC2 6.91

Complete the entry with pIC50 for CNCCN(C)Cc1nn2c(c1C1CCC(COC)(COC)CC1)CN(C(=O)C1CCCCC1)CC2 7.24
